method summary: Antiproliferative activity against human BGC823 cells after 48 hrs by MTT assay
Type: functional, cell-based
measurement conditions: BGC-823, 48 h
pIC50: −log10 of the molar value.
metric name: pIC50

Please review the entries below; each comes with its answer.
Dear colleague, please send me the reported pIC50 for CC[C@H](C)[C@H](NC(=O)OC(C)(C)C)C(=O)O[C@@H]1C[C@@H]2[C@@]3(C)CC[C@H](O)C(C)(C)[C@@H]3CC[C@@]2(C)[C@]2(C)CC[C@H]([C@](C)(O)CCCC(C)(C)O)[C@@H]12 when you can.
< 4.00

Using the record for CC[C@H](C)[C@H](NC(=O)OC(C)(C)C)C(=O)O[C@H]1CC[C@]2(C)[C@H]3C[C@@H](OC(=O)[C@@H](NC(=O)OC(C)(C)C)[C@@H](C)CC)[C@@H]4[C@@H]([C@](C)(O)CCCC(C)(C)O)CC[C@@]4(C)[C@]3(C)CC[C@H]2C1(C)C , state its measured pIC50.
< 4.00

Others:
Supply reported pIC50 belonging to this molecule: CC(C)(O)CCC[C@@](C)(O)[C@H]1CC[C@]2(C)[C@@H]1[C@H](OC(=O)[C@H](CCC(=O)OCc1ccccc1)NC(=O)OC(C)(C)C)C[C@@H]1[C@@]3(C)CC[C@H](O)C(C)(C)[C@@H]3CC[C@]12C
< 4.00
